Experimental details: amyloid nucleation score (Sup35N fusion, yeast selection) (log enrichment); library NNK1; higher = more nucleation; inactive = no reads after selection;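 also: zero at mode of non-aggregating sequences after 7 days selection at 30°C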
Exercise: state measured amyloid nucleation score for each of the substances provided.
Numbers only.

Record excerpt, results attached:
IRQQFKCYGEFCATM | -0.587
MDSFVITSFSYNTSLTMRIL | 1.4
RALCLWTCKSYMFRN | -0.13
PWNLLGKIVTFV | 1.09
FFLWGRW | -0.341
PVHVLYFTWMNQECCGHNYL | 6.5

I have 4 substances here; please give me amyloid nucleation score for each one.
1. NGMIFFVIGMNFGCQESSRN
2. FTFEFVNHMASVYRSLMYER
3. ACWYLKRFLIMGKLSWS
4. KQNSKLFLIFIGNALGQVTV

1. 6.21
2. -0.356
3. -0.15
4. 5.09
